# Test system: CTL2-GFP (C. trachomatis L2/434/Bu, GFP-expressing)
# Construct: L2/434/Bu, GFP-expressing
# assay: microbe, parasite or virus in culture
# Set-up: Intracellular C. trachomatis growth in HeLa cells, bulk GFP fluorescence relative to DMSO
# testParameters: Chlamydia trachomatis, HeLa, 28.5 h; bulk GFP, mean of 2; read-out: % of control remaining
For each entry below, report its activity at 5 µM value.
Please respond with the number in % and leave the unit unwritten.

Complete the entry with activity at 5 µM for CC(C)(CN)CN(Cc1ccccc1Br)C(=O)NC(c1ccccc1)c1ccccc1 [CBK002488C] 114

Complete the entry with activity at 5 µM for COc1nccnc1NS(=O)(=O)c1ccc(Nc2c([N+](=O)[O-])cc([N+](=O)[O-])c3nonc23)cc1 18

Complete the entry with activity at 5 µM for O=[N+]([O-])c1ccc2[nH]c3c(c2c1)CCCC3NC1CCN(CCc2ccccc2)CC1 (stereo not drawn) 25.9

Complete the entry with activity at 5 µM for O=C(Nc1ccccc1N1CCCNCC1)c1ccc2ccccc2c1 [CBK038927T] 1.41

Complete the entry with activity at 5 µM for CC(C)(CNS(=O)(=O)c1ccc(F)cc1)CNS(=O)(=O)c1ccc(F)cc1 13.3

Complete the entry with activity at 5 µM for Cc1ccc(NC(=O)n2ccc3c(N4CCNCC4)cccc32)cc1[N+](=O)[O-] [CBK003747C] 78.4

----------
# assay: in vitro
# testParameters: human, hela cells, % viability
quantityName: viability at 28.5 h, 10 µM (%)
Please respond with the number in % and leave the unit unwritten.

Complete the entry with viability at 28.5 h, 10 µM for O=C1CC[C@@H](NCc2ccncc2)[C@H](c2cc(F)cc(F)c2)N1 92.9

Complete the entry with viability at 28.5 h, 10 µM for CCCC/C=C/c1cnc(N)c(N[C@H](C)c2ccccc2)n1 95.1

Complete the entry with viability at 28.5 h, 10 µM for Cc1cccc(CNCC2CCN(C(=O)OC(C)(C)C)CC2)n1 104

Complete the entry with viability at 28.5 h, 10 µM for O=C(CSc1nnc(CN2CCOCC2)n1-c1ccccc1)N1CCc2ccccc21 92.7

Complete the entry with viability at 28.5 h, 10 µM for N=C1NC(=O)/C(=C\c2ccc(-c3ccc(Br)cc3)o2)S1 69.9

Complete the entry with viability at 28.5 h, 10 µM for Cc1oc(-c2ccccc2)nc1C(=O)O 98.4

Complete the entry with viability at 28.5 h, 10 µM for O=C(CCN1CCN(CCO)CC1)Nc1ccc(Cl)cc1 101

Complete the entry with viability at 28.5 h, 10 µM for COC(=O)c1ccc(N2C(=O)CC(SCCc3nc4ccccc4[nH]3)C2=O)cc1 (stereo not shown) 88.5

Complete the entry with viability at 28.5 h, 10 µM for CC(=O)Nc1cccc(-c2cnc(N)c(NCc3cccnc3)n2)c1 103

Complete the entry with viability at 28.5 h, 10 µM for O=C(Nc1ccccc1)c1ccc2c(c1)C(=O)N(c1cccc(N3C(=O)c4ccc(C(=O)Nc5ccccc5)cc4C3=O)n1)C2=O 91.5

Complete the entry with viability at 28.5 h, 10 µM for O=C(NCCCNC(=O)c1ccccn1)c1ccc(Cl)cc1 88.5

Complete the entry with viability at 28.5 h, 10 µM for O=C(Nc1ccccc1C(=O)O)c1ccc(S(=O)(=O)N2CCCCC2)cc1 103

Complete the entry with viability at 28.5 h, 10 µM for CSCCC(=O)N1CCCC2(CCN(C(=O)c3cc(F)c(F)cc3F)C2)C1 (stereo not shown) 93.7

Complete the entry with viability at 28.5 h, 10 µM for O=C(NCc1ccc(Cl)cc1)c1cn(-c2ccccc2)c2ccc(CN3CCOCC3)cc2c1=O 98.7

Complete the entry with viability at 28.5 h, 10 µM for Cc1nn(CC(=O)N2CCCCCC2)c(=O)c2cc3occc3n12 96.5

Complete the entry with viability at 28.5 h, 10 µM for O=S(=O)(Nc1nnc(C(F)(F)F)s1)c1ccc(Oc2ccccc2)cc1 92.6

Complete the entry with viability at 28.5 h, 10 µM for COc1cccc(CN2CCN(Cc3cc(OC)cc(OC)c3)CC2)c1 91.2

Complete the entry with viability at 28.5 h, 10 µM for O=C(c1cnc2ccccc2n1)N1CCC(F)CC1 93.4

Complete the entry with viability at 28.5 h, 10 µM for Cc1c(-c2cc(-c3cnn(C)c3C)[nH]n2)cnn1C 76
